test system: NCI-H2009; test: relative viability (nuclei count vs DMSO), 5 days (fraction); higher = more cells survive; settings: first compound 0.253 µM
experimentalEndpoint: relative viability
Give your answer as a number; write no unit.

Some compounds with recorded relative viability:
| compound | obsValue |
| --- | --- |
| O=c1[nH]c2ccccc2n1C1CCN(CCCC(c2ccc(F)cc2)c2ccc(F)cc2)CC1 [Pimozide] + Cc1nc(NC(=O)N2CCC[C@H]2C(N)=O)sc1-c1ccnc(C(C)(C)C(F)(F)F)c1 [Alpelisib] (partner 2 µM) | 1.15 |
| Cc1cnc(-c2cnc(NCCNc3ccc(C#N)cn3)nc2-c2ccc(Cl)cc2Cl)[nH]1 + CC(=O)c1c(C)c2cnc(Nc3ccc(N4CCNCC4)cn3)nc2n(C2CCCC2)c1=O [Palbociclib] (partner 0.5 µM) | 0.208 |
| O=c1[nH]c2ccccc2n1C1CCN(CCCC(c2ccc(F)cc2)c2ccc(F)cc2)CC1 [Pimozide] + COc1cccc2cc(-c3nc([C@H]4CC[C@H](C(=O)O)CC4)n4ncnc(N)c34)[nH]c12 [OSI-027] (partner 0.5 µM) | 0.655 |
| Cc1cnc(-c2cnc(NCCNc3ccc(C#N)cn3)nc2-c2ccc(Cl)cc2Cl)[nH]1 + Cc1cc(Nc2cc(N3CCN(C)CC3)nc(Sc3ccc(NC(=O)C4CC4)cc3)n2)n[nH]1 [Tozasertib] (partner 0.1 µM) | 0.695 |
| Cc1cnc(-c2cnc(NCCNc3ccc(C#N)cn3)nc2-c2ccc(Cl)cc2Cl)[nH]1 + O=C(CCCCCCC(=O)Nc1ccccc1)NO [Vorinostat] (partner 1 µM) | 0.676 |

Q: Suppose we examine the compound O=c1[nH]c2ccccc2n1C1CCN(CCCC(c2ccc(F)cc2)c2ccc(F)cc2)CC1 [Pimozide] + CCNC(=O)c1noc(-c2cc(C(C)C)c(O)cc2O)c1-c1ccc(CN2CCOCC2)cc1 [Luminespib] (partner 0.01 µM) ; what relative viability value has been reported?
Result: 1.01

Q: Suppose we examine the compound Cc1cnc(-c2cnc(NCCNc3ccc(C#N)cn3)nc2-c2ccc(Cl)cc2Cl)[nH]1 + C[C@@H](Oc1cc(-c2cnn(C3CCNCC3)c2)cnc1N)c1c(Cl)ccc(F)c1Cl [Crizotinib] (partner 1 µM) ; what relative viability value has been reported?
Result: 0.958

* * *

test system: HARA; experiment: relative viability (nuclei count vs DMSO), 5 days (fraction); higher = more cells survive; details: first compound 0.1581 µM
experimentalEndpoint: relative viability
Give your answer as a number; write no unit.

| molecule | relative viability |
| --- | --- |
| Nc1ccn([C@@H]2O[C@H](CO)[C@@H](O)[C@@H]2O)c(=O)n1 [Cytarabine] + CC(=O)c1c(C)c2cnc(Nc3ccc(N4CCNCC4)cn3)nc2n(C2CCCC2)c1=O [Palbociclib] (partner 0.5 µM) | 0.158 |

Shift focus to the following entry.
Q: Suppose we examine the molecule COc1cc2nccc(Oc3ccc(NC(=O)Nc4cc(C)on4)c(Cl)c3)c2cc1OC [Tivozanib] + COc1cccc2cc(-c3nc([C@H]4CC[C@H](C(=O)O)CC4)n4ncnc(N)c34)[nH]c12 [OSI-027] (partner 0.5 µM) ; what relative viability value has been reported?
Result: 0.196

* * *

tested on: NCI-H1299; experiment: relative viability (nuclei count vs DMSO), 5 days (fraction); higher = more cells survive; conditions: first compound 0.5 µM
For each record, check the reported relative viability: if it is below 1 write class 1, else write class 0.

Check out these entries, answers already filled in.
| compound | cat |
| --- | --- |
| COc1cc2nccc(Oc3ccc(NC(=O)Nc4cc(C)on4)c(Cl)c3)c2cc1OC [Tivozanib] + CC(C)C[C@H](NC(=O)[C@H](Cc1ccccc1)NC(=O)c1cnccn1)B(O)O [Bortezomib] (partner 0.002 µM) | class 1 |
| Nc1ccn([C@@H]2O[C@H](CO)[C@@H](O)[C@@H]2O)c(=O)n1 [Cytarabine] + CS(=O)(=O)N1CCN(Cc2cc3nc(-c4cccc5[nH]ncc45)nc(N4CCOCC4)c3s2)CC1 [Pictilisib] (partner 1 µM) | class 1 |
| Nc1ccn([C@@H]2O[C@H](CO)[C@@H](O)[C@@H]2O)c(=O)n1 [Cytarabine] + Cc1nc(NC(=O)N2CCC[C@H]2C(N)=O)sc1-c1ccnc(C(C)(C)C(F)(F)F)c1 [Alpelisib] (partner 2 µM) | class 0 |
| COc1cc2nccc(Oc3ccc(NC(=O)Nc4cc(C)on4)c(Cl)c3)c2cc1OC [Tivozanib] + COc1cc2c(Oc3ccc(NC(=O)C4(C(=O)Nc5ccc(F)cc5)CC4)cc3F)ccnc2cc1OCCCN1CCOCC1 [Foretinib] (partner 0.25 µM) | class 0 |
| COc1cc2nccc(Oc3ccc(NC(=O)Nc4cc(C)on4)c(Cl)c3)c2cc1OC [Tivozanib] + CS(=O)(=O)CCNCc1ccc(-c2ccc3ncnc(Nc4ccc(OCc5cccc(F)c5)c(Cl)c4)c3c2)o1 [Lapatinib] (partner 2 µM) | class 1 |
| Nc1ccn([C@@H]2O[C@H](CO)[C@@H](O)[C@@H]2O)c(=O)n1 [Cytarabine] + CS(=O)(=O)CCNCc1ccc(-c2ccc3ncnc(Nc4ccc(OCc5cccc(F)c5)c(Cl)c4)c3c2)o1 [Lapatinib] (partner 2 µM) | class 1 |

Consider the additional compound presented here.
Q: Consider COc1cc2nccc(Oc3ccc(NC(=O)Nc4cc(C)on4)c(Cl)c3)c2cc1OC [Tivozanib] + Cc1nc(NC(=O)N2CCC[C@H]2C(N)=O)sc1-c1ccnc(C(C)(C)C(F)(F)F)c1 [Alpelisib] (partner 2 µM) . Does its relative viability lie strictly below 1?
Result: class 0
